// reported IC50 for each item listed
# assaySystem: Dual specificity protein phosphatase 1 (Homo sapiens, UniProt P28562)
# Sequence (P28562 whole entry): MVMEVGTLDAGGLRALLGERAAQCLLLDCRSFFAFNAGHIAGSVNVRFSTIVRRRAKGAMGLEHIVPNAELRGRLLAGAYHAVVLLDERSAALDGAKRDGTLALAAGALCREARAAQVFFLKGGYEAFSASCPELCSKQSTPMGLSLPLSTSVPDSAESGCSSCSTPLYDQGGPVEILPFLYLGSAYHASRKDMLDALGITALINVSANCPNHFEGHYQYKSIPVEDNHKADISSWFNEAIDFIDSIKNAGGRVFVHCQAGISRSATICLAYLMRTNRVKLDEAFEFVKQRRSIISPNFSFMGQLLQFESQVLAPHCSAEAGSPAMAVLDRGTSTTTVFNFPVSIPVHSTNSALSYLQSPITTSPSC
# protocol: MKP-1 phosphatase inhibition under DTT, dose response, biochemical, DTT added, probe assessment (AID 558)
Could you give me the number in µM? Just the number is fine.

// worked examples, IC50 included
molecule	recordedValue
O=C1C=Cc2ccccc2C1=O [1,2-dihydronaphthalene-1,2-dione]	22.5
CCCCn1c(SCC(=O)c2ccc(OC)cc2OC)nc2cc(S(N)(=O)=O)ccc21	42.1
COc1ccc(Br)cc1C=c1sc2nc(-c3ccco3)nn2c1=O	17.2
COc1ccc2noc3c2c1C(=O)c1ccccc1-3 [MLS000106874]	14.3

So what does the record say about IC50 for "COc1ccc(-c2cc3nc(C4CCN(C(=O)OC(C)(C)C)CC4)c(C(=O)O)cn3n2)cc1" ?
36.3

---

# assaySystem: Dual specificity protein phosphatase 1 (Homo sapiens, UniProt P28562)
# protocol: MKP-1 phosphatase inhibition under DTT, dose response, biochemical, DTT added, probe assessment (AID 558)
measuredQuantity: IC50 (µM)
Provide the reading as a plain figure in µM.

Look over these answered cases.
compound	assaySystem	measuredQuantity	unitOfMeasurement	recordedValue
CC(C)Cn1c(N)c(C(=O)COC(=O)c2cc(-c3ccco3)nc3ccccc23)c(=O)n(C)c1=O	Dual specificity protein phosphatase 1 (Homo sapiens, UniProt P28562)	IC50	µM	25.5
CCOc1cc(/C=C(/C#N)c2ccc(F)cc2)ccc1OCc1ccc(C(=O)O)o1	Dual specificity protein phosphatase 1 (Homo sapiens, UniProt P28562)	IC50	µM	41.8
Cc1cccc(N2CCN(C(=O)Cc3c(C(=O)O)[nH]c4ccc(Cl)cc34)CC2)c1C	Dual specificity protein phosphatase 1 (Homo sapiens, UniProt P28562)	IC50	µM	46.8

Using the record for "CCn1c(SCC(=O)Nc2ccc3c(c2)c2ccccc2n3CC)nnc1-c1ccco1" , report its IC50.
21.1

Field entry: CCCCCNC(=O)c1ccc2c(=O)[nH]c3c(C(=O)NCC4CCCO4)sc(=S)n3c2c1 (stereo not given)
36.7

And then "O=C(Nc1ccccc1)c1ccc2nc(-c3ccco3)c(-c3ccco3)nc2c1" , what is it?
32

And then "O=C1c2ccccc2-c2onc3ccc(NCCCn4ccnc4)c1c23" , what is it?
35.2

Follow-up item: "CCCSc1nnc(NC(=O)c2sc3nc(-c4cccs4)ccc3c2N)s1"
25.7

Param item: "O=C(Nc1ccc2nc(-c3ccco3)c(-c3ccco3)nc2c1)N1CCCCCC1"
24.1

Proceed to "CCCCCC#CCC#CCC#CCC#CCCCC(=O)O"
13.1
